Target: T1, IL-23 receptor on the surface of HEK-Blue IL-23 cells (UniProt Q5VWK5 24-629, limits assumed)
T1 sequence (looked up): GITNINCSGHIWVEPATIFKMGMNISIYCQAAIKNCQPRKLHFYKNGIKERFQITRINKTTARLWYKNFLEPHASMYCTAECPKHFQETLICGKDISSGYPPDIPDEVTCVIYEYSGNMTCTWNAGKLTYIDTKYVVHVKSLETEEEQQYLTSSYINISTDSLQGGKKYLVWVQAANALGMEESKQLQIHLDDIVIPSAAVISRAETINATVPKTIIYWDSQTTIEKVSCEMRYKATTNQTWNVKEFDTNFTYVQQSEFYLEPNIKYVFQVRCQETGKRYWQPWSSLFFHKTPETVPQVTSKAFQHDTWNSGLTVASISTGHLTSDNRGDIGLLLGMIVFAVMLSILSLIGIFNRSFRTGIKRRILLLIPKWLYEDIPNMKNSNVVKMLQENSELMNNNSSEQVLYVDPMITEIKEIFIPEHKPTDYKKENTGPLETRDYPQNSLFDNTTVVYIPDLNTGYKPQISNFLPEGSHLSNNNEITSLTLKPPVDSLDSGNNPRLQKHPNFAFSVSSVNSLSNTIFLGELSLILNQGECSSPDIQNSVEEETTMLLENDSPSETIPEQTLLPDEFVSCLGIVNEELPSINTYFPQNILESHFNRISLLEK
Experiment: cell-based or functional assay
Starred links: 1 amine or outer side, 2 acyl side, 3 side chain; linkers in the order of their positions; H or OH if unused. Positions of bridges follow the written chain, without caps; N, C: chain ends. Non-standard residues stand in square brackets, D forms with d. No end group written: not given here. Yde = (2S)-2-amino-3-[4-[2-(dimethylamino)ethoxy]phenyl]propanoic acid, CN(C)CCOc1ccc(C[C@H](N[*:1])C(=O)[*:2])cc1; Phe(4-OMe) = COc1ccc(C[C@H](N[*:1])C(=O)[*:2])cc1; Trp(7-Me) = Cc1cccc2c(C[C@H](N)C(=O)O)c[nH]c12; 2Nal = N[C@@H](Cc1ccc2ccccc2c1)C(=O)O; εLys = N[C@@H](CCCCN[*:1])C(=O)[*:2]; 3Pal = N[C@@H](Cc1cccnc1)C(=O)O; Dad = desamino-aspartamic acid; αMeL = CC(C)C[C@](C)(N)C(=O)O; Thp = NC1(C(=O)O)CCOCC1; Aib = CC(C)(N)C(=O)O; Ahx = NCCCCCC(=O)O; Ava = NCCCCC(=O)O; Sar = CNCC(=O)O
metric: pSTAT3 (nM)

Worked cases, answers included:
| binder | quantity unit | pSTAT3 (nM) |
| --- | --- | --- |
| [Dad]CNT[Trp(7-Me)]K(Ac)C[Yde][2Nal][Thp]KN[3Pal][Sar]-NH2 (lactam (positions not given here); disulfide 2-7; not fully specified (bridges); printed as Dad(§1)-C(@2)-N-T-Wim-K[Ac]-C(@2)-Yde-Nal-Thp-K(§1)-N-Pal-Sar-NH2) [Compound of SEQ ID NO: 102] | nM | 0.09 |
| [Ava]CNTWQC[Yde][2Nal][αMeL]ENN-NH2 (lactam N-11; disulfide 2-7; SMILES CC(C)C[C@]1(C)NC(=O)[C@H](Cc2ccc3ccccc3c2)NC(=O)[C@H](Cc2ccc(OCCN(C)C)cc2)NC(=O)[C@@H]2CSSC[C@H](NC(=O)CCCCNC(=O)CC[C@@H](C(=O)N[C@@H](CC(N)=O)C(=O)N[C@@H](CC(N)=O)C(N)=O)NC1=O)C(=O)N[C@@H](CC(N)=O)C(=O)N[C@@H]([C@@H](C)O)C(=O)N[C@@H](Cc1c[nH]c3ccccc13)C(=O)N[C@@H](CCC(N)=O)C(=O)N2) [Compound of SEQ ID NO: 27] | nM | 1.71 |
| [Ahx]E[Ava]WQT[Phe(4-OMe)][2Nal][Aib]DNN-NH2 (lactam N-10; ester 2-6; SMILES COc1ccc(C[C@@H]2NC(=O)[C@H]3NC(=O)[C@H](CCC(N)=O)NC(=O)[C@H](Cc4c[nH]c5ccccc45)NC(=O)CCCCNC(=O)[C@H](CCC(=O)O[C@@H]3C)NC(=O)CCCCCNC(=O)C[C@@H](C(=O)N[C@@H](CC(N)=O)C(=O)N[C@@H](CC(N)=O)C(N)=O)NC(=O)C(C)(C)NC(=O)[C@H](Cc3ccc4ccccc4c3)NC2=O)cc1) [Compound of SEQ ID NO: 39] | nM | 26.4 |

P = [Ava]CNTWK(Ac)C[Yde][2Nal][Aib]EN[3Pal]I-NH2 (lactam N-11; disulfide 2-7; also: places amidation at position 13) [Compound of SEQ ID NO: 37]
Q = [Ava]C[εLys](Ac)WQC[Yde][2Nal][Aib]EAG-NH2 (lactam N-10; disulfide 2-6; also: Cys2 carboxyl bonded to Lys3 epsilon-NH2 (isopeptide), Lys3 alpha-N acetylated) [Compound of SEQ ID NO: 32]
Ask | Consider P and Q . Which of these has its pSTAT3 (nM) at a higher number? Which one? Tell me its label.
Reply | Q
(Q: 20.5 nM, P: 2 nM)
